Give growth for every item shown.
# System: SNB-19 CNS
# test: NCI-60 one-dose screen, 48 h (100 = growth as untreated, 0 = no growth, -100 = all killed)
# condition.parameters: 10 µM
About 83,000 compounds went through this panel and 20% of them were active in at least one assay; those are over-represented in the sample as a whole.
Answers are plain numbers, in %.

Some compounds with known growth results, for comparison:
>  <compound>
CNC(=O)c1cn2c3c(c(N4CCN(C)CC4)c(F)cc3c1=O)OC[C@@H]2C

>  <growth (%)>
106

$$$$
>  <compound>
CCOC(=O)c1cc(C(=O)c2cc(OC)c(OC)c(OC)c2)n2nc(C)ccc12

>  <growth (%)>
54

$$$$

Here are 4 compounds. What values of growth were reported for them?
1. O=C(CCNC(=O)c1nc(-c2ccccc2)n(-c2ccc(Cl)cc2)n1)NO
2. COc1ccc2c(c1)C(CC(=O)NN)CCC2 (stereo unspecified)
3. C#C[C@]1(O)CCC2C3CCc4cc(OC5CCCC5)ccc4C3CC[C@@]21C (stereo partly specified)
4. COc1cc(N)c2ncccc2c1SC

1. 102
2. 109
3. 104
4. 99

###

# Tested on: SK-MEL-28 melanoma
# test: NCI-60 one-dose screen, 48 h (100 = growth as untreated, 0 = no growth, -100 = all killed)
# condition.parameters: 10 µM
The panel holds about 83,000 compounds, 20% with a hit somewhere; the sample as a whole holds those more often.
Give growth for every item shown.
Numbers only, in %.

Some compounds with known growth results, for comparison:
>  <smiles.record>
COc1cc2c(cc1NC(=O)C(Cl)Cl)-c1ccc(NC(=O)C(Cl)Cl)cc1C2

>  <system.name>
SK-MEL-28 melanoma

>  <growth (%)>
-54.7

$$$$
>  <smiles.record>
O=C1/C(=C/c2ccc([N+](=O)[O-])s2)Oc2cc(Cl)ccc21

>  <system.name>
SK-MEL-28 melanoma

>  <growth (%)>
-29.2

$$$$

// lookup growth for CC(=O)N[C@H](C(=O)N[C@@H](CCCNC(=N)N)C(=O)N[C@@H](CCCCN)C(=O)N[C@@H](CCCNC(=N)N)C(=O)N[C@]1(C)CCCCCC/C=C\CCC[C@@](C)(C(=O)N[C@@H](CCCNC(=N)N)C(=O)N[C@@H](CCC(=O)O)C(=O)N[C@@H](CC(C)C)C(=O)N[C@H](C(=O)N[C@@H](CCC(=O)O)C(N)=O)C(C)C)NC(=O)[C@H](CCC(N)=O)NC(=O)[C@H](CC(C)C)NC(=O)[C@H](CC(C)C)NC(=O)[C@H](CCCNC(=N)N)NC(=O)[C@H](CCCNC(=N)N)NC(=O)[C@H](CC(C)C)NC1=O)C(C)C
-29.7

###

# System: COLO 205 colon
# test: NCI-60 one-dose screen, 48 h (100 = growth as untreated, 0 = no growth, -100 = all killed)
# condition.parameters: 10 µM
The panel holds about 83,000 compounds, 20% with a hit somewhere; the sample as a whole holds those more often.
assay.readout: growth (%)
Answers are plain numbers, in %.

Some compounds with known growth results, for comparison:
>  <compound>
CCOC(=O)Cn1c(=O)c2sc3ncccc3c2n2nnc(-c3ccccc3)c12

>  <growth, %>
104

$$$$
>  <compound>
C[C@]12CCC3c4ccc(O)cc4C[C@@H](CCCCCCCCCS(=O)CCCC(F)(F)C(F)(F)F)C3C1CC[C@@H]2O (some centres undefined)

>  <growth, %>
93.7

$$$$
>  <compound>
O=C(NCCNC(=O)c1ccc(F)cc1)Nc1ccc(-n2cc(-c3ccncc3)c(-c3ccc(Cl)c(O)c3)n2)cc1

>  <growth, %>
-80.8

$$$$
>  <compound>
Cc1cc(SCc2ccccc2)nc(N)n1

>  <growth, %>
127

$$$$
>  <compound>
CS(=O)(=O)c1nccc(-c2c(-c3cccc(OCc4ccccc4)c3)nc3sccn23)n1

>  <growth, %>
88.4

$$$$

Here are 3 compounds. What values of growth were reported for them?
1. O=C(Nc1ccc(OS(=O)(=O)c2ccccc2)cc1)C1CCCCC1
2. CC(CN(C)C)Oc1ccccc1NC1=C(Cl)C(=O)C(Nc2ccccc2OC(C)CN(C)C)=C(Cl)C1=O (centres undefined)
3. CN(C)CCOc1cccc(NC2=C(Cl)C(=O)C(Nc3cccc(OCCN(C)C)c3)=C(Cl)C2=O)c1

97
-67.3
-82.9

Given the entry Cc1c2c[n+](C(C)C)ccc2c(C)c2c1[nH]c1ccccc12 , what growth was observed with COLO 205 colon?
-6.61

###

# Test system: OVCAR-5 ovarian
# test: NCI-60 one-dose screen, 48 h (100 = growth as untreated, 0 = no growth, -100 = all killed)
# condition.parameters: 10 µM
# Experimental: Growth inhibition of the OVCAR-5 human tumor cell line is measured as a screen for anti-cancer activity. Cells are grown in 96 well plates and exposed to the test compound for 48 hours. Compounds are tested at a single concentration, which is 10^-5 M for most compounds. The reported endpoint is percent growth (GI% or GIPRCNT), where numbers from 0 - 100% represent growth inhibition, and numbers from -100% - 0 represent cell death. For example, a value of 40 represents 60% growth inhibition. […]
This is part of a sample that, as a whole, favours compounds with a hit. Of some 83,000 tested, about 20% had one in any assay.
Give growth for every item shown.
Give bare numbers, in %.

Some compounds with known growth results, for comparison:
>  <compound>
CN(C)CCCOc1cccc(NC2=C(Cl)C(=O)C(Nc3cccc(OCCCN(C)C)c3)=C(Cl)C2=O)c1

>  <system.name>
OVCAR-5 ovarian

>  <units.of.measure>
%

>  <value.measured>
-47.9

$$$$
>  <compound>
O=C(CCl)Nc1ccc(Cc2ccc(NC(=O)CCl)cc2)cc1

>  <system.name>
OVCAR-5 ovarian

>  <units.of.measure>
%

>  <value.measured>
9.56

$$$$
>  <compound>
O=C1/C(=C/c2ccc([N+](=O)[O-])s2)Oc2cc(Cl)ccc21

>  <system.name>
OVCAR-5 ovarian

>  <units.of.measure>
%

>  <value.measured>
53

$$$$

Here are 4 compounds. What values of growth were reported for them?
1. CCCc1cn(CC(=O)Nc2nc3ccccc3s2)nn1
2. COc1cc(C(=O)n2nc(-c3cc(OC)c(OC)c(OC)c3)nc2N)cc(OC)c1OC
3. COc1nc2c(c(=O)n1C)CN(c1ccccc1)C(=O)C(C)N2 (stereo not drawn)
4. Cc1cc(SC#N)cc(C(C)(C)C)c1O

1: 98.6; 2: 97; 3: 93.2; 4: 88.4

Here are 4 compounds. What values of growth were reported for them?
1. CCN(CC)c1ccc(/C=C2\SC(=O)C(Nc3nnc(-c4cccnc4SCc4ccccc4)o3)C2=O)cc1 (stereo not drawn)
2. CC(C1=C(CN(C(=O)Cc2cn(-c3ccccc3)nc2-c2ccc(Cl)cc2)C(C)C)Cc2ccccc21)c1ccccn1 (stereo not drawn)
3. COc1ccc(-c2nc(-c3nc4ccc(C)cc4[nH]3)cc3c2[nH]c2ccccc23)cc1
4. CC(C)(C)c1ccc(S(=O)(=O)N[C@H]2CC[C@H]3[C@@H]4CCc5cc(OS(=O)(=O)O)ccc5[C@H]4CC[C@]23C)cc1

1. 41.4
2. 85
3. 83.9
4. 87.3

Here are 7 compounds. What values of growth were reported for them?
1. Cc1c2cnccc2c(C)c2c1c1cc(O)ccc1n2C(C)C
2. CC(C)(C)c1ccc(S(=O)(=O)N[C@H]2CC[C@H]3[C@@H]4CCc5cc(O)c([N+](=O)[O-])cc5[C@H]4CC[C@]23C)cc1
3. COc1ccc2cc(-c3nc4ccccc4s3)c(Cl)nc2c1OC
4. O=C(Nc1ccc2c(O)cc(S(=O)(=O)O)cc2c1)c1ccc([N+](=O)[O-])cc1
5. COc1cc(C)ccc1Oc1nc(Nc2ccc(N3CCOCC3)cc2)ncc1NC(=O)Nc1cc(C(F)(F)F)cc(C(F)(F)F)c1
6. CC[C@@H](C(=O)[C@@H](C)[C@@H](O)[C@H](C)[C@@H]1O[C@@H]([C@@H](CC)C(=O)O)CC[C@@H]1C)C1O[C@]2(C=CC(=O)[C@]3(CC[C@@](C)([C@H]4CC[C@](O)(CC)[C@H](C)O4)O3)O2)[C@H](C)C[C@@H]1C (stereo partly drawn)
7. O=C(O)c1ccc(-n2cc(CNc3ccc(Cl)cc3)c(-c3ccccc3)n2)cc1

69.2
95.9
105
101
106
56.1
103

###

# Test system: NCI/ADR-RES ovarian
# test: NCI-60 one-dose screen, 48 h (100 = growth as untreated, 0 = no growth, -100 = all killed)
# condition.parameters: 10 µM
Compounds without any hit were thinned out: in the full panel of roughly 83,000, 20% have a hit.
Give growth for every item shown.
Numbers only, in %.

Some compounds with known growth results, for comparison:
>  <compound>
O=C1/C(=C/c2cccc(F)c2)Cc2ccccc21

>  <system.name>
NCI/ADR-RES ovarian

>  <value.measured>
102

$$$$
>  <compound>
O=C(N/N=C/c1c(Cl)cccc1Cl)c1ccccc1Nc1cccc(C(F)(F)F)c1

>  <system.name>
NCI/ADR-RES ovarian

>  <value.measured>
100

$$$$
>  <compound>
COc1nc2c(c(=O)n1C)CN(c1ccccc1)C(=O)C(C)N2 (stereo unspecified)

>  <system.name>
NCI/ADR-RES ovarian

>  <value.measured>
91

$$$$

Here are 3 compounds. What values of growth were reported for them?
1. COc1cc(/C=C/c2cc(/C=C/c3ccc(O)c(OC)c3)[nH]c(=O)n2)ccc1O
2. CCOC(=O)/C(=C(\C)N)C1CC(=O)NC1=O (stereo unspecified)
3. COc1cc(-c2nc3ccccc3o2)cc(CN2CCCCC2)c1O

1. 90.7
2. 92.8
3. 79.7

Here are 4 compounds. What values of growth were reported for them?
1. CCOC(=O)c1cc(C(=O)c2cc(OC)c(OC)c(OC)c2)n2ncc3ccccc3c12
2. OCC1OC2C(NC(=S)N2c2ccccc2)C(O)C1O (stereo unspecified)
3. CCN(CC)CCNc1ccc(C)c2sc3cc(Cl)ccc3c(=O)c12
4. CSc1nc(S(C)(=O)=O)nc2[nH]c(=O)[nH]c12

[63.6, 105, 51.1, 110]

// lookup growth for CCn1cc(CNc2ccc(C(=O)Nc3ccc4ccccc4c3)cc2)c(C)n1
23.3
